Assign pIC50 to each entry below.
Tested on: NLRP3
Assay: IL-1β secretion assay in PMA-differentiated, LPS/nigericin-stimulated THP-1 cells (384-well, ELISA read-out)
Type: cell-based, human
Conditions: Homo sapiens, THP-1, Table 4; IL-1β secretion, LPS/nigericin-stimulated THP-1 cells; read-out: IC50
The quantity pIC50 is defined as the negative base-10 logarithm of the molar concentration.

Fill in: pIC50 of `O=C(CN1C[C@]2(C[C@H]2F)c2cc(C3(F)CC3)ccc2C1=O)Nc1ncc(F)cn1` is ___
7.82

Fill in: pIC50 of `O=C(CN1CC2(CC2)c2cc(Br)ccc2C1=O)Nc1ccc2scnc2c1` is ___
5.56

Fill in: pIC50 of O=C(CN1CC2(CC2)c2cc(Br)ccc2C1=O)N[C@@H]1C[C@H]2CC[C@@H]1O2 (stereo in doubt) is ___
5.38

Fill in: pIC50 of `O=C(CN1CC2(CC2)c2cc(Br)ccc2C1=O)Nc1cnccn1` is ___
5.87

---

Assign pIC50 to each entry below.
Tested on: NLRP3
Assay: IL-1β secretion assay in PMA-differentiated, LPS/nigericin-stimulated THP-1 cells (384-well, ELISA read-out)
Format: cell-based, human
Details: Homo sapiens, THP-1, Table 4; IL-1β secretion, LPS/nigericin-stimulated THP-1 cells; read-out: IC50
The quantity pIC50 is defined as the negative base-10 logarithm of the molar concentration.

Fill in: pIC50 of CN1CCC(NC(=O)CN2CC3(CC3)c3cc(Br)ccc3C2=O)CC12CC2 (stereo not drawn) is ___
5.22

Fill in: pIC50 of `O=C(CN1CC2(CC2)c2cc(Br)ccc2C1=O)NC1CCC(F)(F)CC1` is ___
5.50

Fill in: pIC50 of CCC1(C)CN(CC(=O)Nc2ncccn2)C(=O)c2ccc(C(F)(F)F)cc21 (stereo not drawn) is ___
4.82

Fill in: pIC50 of `O=C(CN1CC2(CC2)c2c(ccc(Cl)c2F)C1=O)Nc1ncc(F)cn1` is ___
6.46

Fill in: pIC50 of `O=C(CN1CC2(CC2)c2cc(Br)ccc2C1=O)Nc1ncc2c(n1)CCOC2` is ___
6.01

Fill in: pIC50 of `O=Cc1cnc(NC(=O)CN2CC3(CC3)c3cc(Br)ccc3C2=O)c(F)c1` is ___
5.88

Fill in: pIC50 of `O=C(CN1CC2(CC2)c2cc(Br)ccc2C1=O)NC1CCN(CC(F)(F)F)CC1` is ___
4.95

Fill in: pIC50 of `N#Cc1ccnc(NC(=O)CN2CC3(CC3)c3cc(Br)ccc3C2=O)n1` is ___
5.55

Fill in: pIC50 of `O=C(CN1CC2(CC2)c2cc(Br)ccc2C1=O)Nc1nc2cccnc2o1` is ___
5.93

---

Assign pIC50 to each entry below.
Test system: NLRP3
Experiment: IL-1β secretion assay in PMA-differentiated, LPS/nigericin-stimulated THP-1 cells (384-well, ELISA read-out)
Type: cell-based, human
Settings: Table 4; IL-1β secretion, LPS/nigericin-stimulated THP-1 cells; read-out: IC50
The quantity pIC50 is defined as the negative base-10 logarithm of the molar concentration.

Fill in: pIC50 of CC1(O)CC(NC(=O)CN2C[C@@]3(C[C@@H]3F)c3cc(C(F)(F)F)ccc3C2=O)C1 (single isomer, unassigned) [Example 328] is ___
7.17

Fill in: pIC50 of C[C@H]1C[C@@]12CN(CC(=O)Nc1ncc(F)cn1)C(=O)c1ccc(Br)cc12 (single isomer, unassigned) [Example 281] is ___
6.97

Fill in: pIC50 of O=C(CN1CC2(CC2(F)F)c2c(ccc(Br)c2F)C1=O)Nc1ncc(F)cn1 (single isomer, unassigned) [Example 288] is ___
4.81

---

Tested on: NLRP3
Assay: IL-1β secretion assay in PMA-differentiated, LPS/nigericin-stimulated THP-1 cells (384-well, ELISA read-out)
Format: cell-based, human
Settings: Homo sapiens, THP-1, Table 4; IL-1β secretion, LPS/nigericin-stimulated THP-1 cells; read-out: IC50
pIC50: −log10 of the molar value.
Rule: 1 for pIC50 not less than 5, -1 for anything less.

hey, is pIC50 for this one >= 5? O=C(CN1CC2(CC2)c2cc(Br)ccc2C1=O)Nc1cn2ccnc2cn1 [Example 179]
1

hey, is pIC50 for this one >= 5? O=C(CN1C[C@@]2(C[C@@H]2C(F)(F)F)c2cc(Br)ccc2C1=O)Nc1ncc(F)cn1 [Example 86]
1

hey, is pIC50 for this one >= 5? Cn1nc(C2CC2)cc1NC(=O)CN1CC2(CC2)c2cc(Br)ccc2C1=O [Example 126]
-1

hey, is pIC50 for this one >= 5? O=C(CN1CC2(CC2)c2cc(C(F)F)ccc2C1=O)Nc1ncc(F)cn1 [Example 96]
1

hey, is pIC50 for this one >= 5? O=C(CN1CC2(CC2)c2cc(C(F)(F)F)cc(Cl)c2C1=O)Nc1ncc(F)cn1 [Example 354]
-1

hey, is pIC50 for this one >= 5? O=C(CN1CC2(CC2)c2cc(Br)ccc2C1=O)NC1CCN(c2cccnc2)CC1 [Example 369]
1

---

System: NLRP3
Test: IL-1β secretion assay in PMA-differentiated, LPS/nigericin-stimulated THP-1 cells (384-well, ELISA read-out)
Type: cell-based, human
Conditions: Homo sapiens, THP-1, Table 4; IL-1β secretion, LPS/nigericin-stimulated THP-1 cells; read-out: IC50
Experimental: Compounds as provided herein were tested in the following assay. Cell culture medium employed contained RPMI 1640 medium (89%), FBS (10%), Pen/Strep (1%), and 2-mercaptoethanol (0.05 mM). Freezing medium was made up of 90% FBS and 10% DMSO. […] All media was carefully aspirated from each culture flask. […] These supernatant aliquots were analyzed using an IL-Iβ detection kit as described below. If needed, the test samples could be snap frozen and stored at −80° C. until analyzed. […]
Assign pIC50 to each entry below.
The quantity pIC50 is defined as the negative base-10 logarithm of the molar concentration.

Fill in: pIC50 of O=C(CN1CC2(CC2)c2cc(Br)ccc2C1=O)Nc1ncc(N2CCCC2)cn1 [Example 364] is ___
5.59

Fill in: pIC50 of O=C(CN1CC2(CC2)c2cc(Br)ccc2C1=O)N[C@H]1C[C@@H](c2ccn[nH]2)C1 [Example 334] is ___
5.12

Fill in: pIC50 of O=C(CN1CC2(CC2)c2cc(Br)ccc2C1=O)Nc1ccc(Cl)nn1 [Example 10] is ___
5.89

Fill in: pIC50 of O=C(CN1C[C@]2(C[C@H]2F)c2cc(C3(F)CC3)ccc2C1=O)Nc1ncc(Cl)cn1 [Example 250] is ___
7.85

Fill in: pIC50 of O=C(CN1CC2(CC2)c2cc(Br)ccc2C1=O)NC1CS(=O)(=O)C1 [Example 118] is ___
4.65

Fill in: pIC50 of CCOC(=O)N1CCC(NC(=O)CN2CC3(CC3)c3cc(Br)ccc3C2=O)CC1 [Example 378] is ___
5.30

Fill in: pIC50 of O=C(CN1CC2(CC2)c2cc(Br)ccc2C1=O)NC1Cc2ccccc2C1 [Example 129] is ___
5.14

Fill in: pIC50 of CC(C)(O)C1CC(NC(=O)CN2CC3(CC3)c3cc(Br)ccc3C2=O)C1 (centres unmarked) [Example 50] is ___
5.19

---

System: NLRP3
Test: IL-1β secretion assay in PMA-differentiated, LPS/nigericin-stimulated THP-1 cells (384-well, ELISA read-out)
Format: cell-based, human
Conditions: Homo sapiens, THP-1, Table 4; IL-1β secretion, LPS/nigericin-stimulated THP-1 cells; read-out: IC50
pIC50: −log10 of the molar value.
Rule: fulfilled for pIC50 not less than 6, not fulfilled for anything less.

hey, is pIC50 for this one >= 6? O=C(CN1C[C@@]2(C[C@@H]2F)c2c(ccc(C3CC3)c2F)C1=O)Nc1ncc(Cl)cn1 (single isomer, unassigned)
fulfilled

hey, is pIC50 for this one >= 6? `O=C(CN1CC2(CC2)c2cc(Br)ccc2C1=O)NC1(c2ccccc2)CC1`
not fulfilled

hey, is pIC50 for this one >= 6? CN1CC(NC(=O)CN2CC3(CC3)c3cc(Br)ccc3C2=O)CC1=O (centres unmarked)
not fulfilled

hey, is pIC50 for this one >= 6? CN1CCC(NC(=O)CN2CC3(CC3)c3cc(Br)ccc3C2=O)CC1=O (centres unmarked)
not fulfilled

hey, is pIC50 for this one >= 6? `N#CC1(c2ccc3c(c2)C2(CC2)CN(CC(=O)Nc2ncc(F)cn2)C3=O)CC1`
not fulfilled

---

Assign log10 of IC50 to each entry below.
Test system: NLRP3
Assay: IL-1β secretion assay in PMA-differentiated, LPS/nigericin-stimulated THP-1 cells (384-well, ELISA read-out)
Format: cell-based, human
Details: Table 4; IL-1β secretion, LPS/nigericin-stimulated THP-1 cells; read-out: IC50
Short version: log10 scale, IC50, nM.

Fill in: log10 of IC50 of O=C(CN1CC2(CC2(F)F)c2c(ccc(Br)c2F)C1=O)Nc1ncc(F)cn1 (single isomer, unassigned) [Example 289] is ___
1.43

Fill in: log10 of IC50 of N#Cc1cnc(NC(=O)CN2C[C@@]3(C[C@@H]3F)c3cc(C(F)(F)F)ccc3C2=O)nc1 (single isomer, unassigned) [Example 236] is ___
3.05

Fill in: log10 of IC50 of C[C@H]1C[C@]12CN(CC(=O)Nc1ncc(F)cn1)C(=O)c1ccc(Br)cc12 (single isomer, unassigned) [Example 280] is ___
3.37

Fill in: log10 of IC50 of O=C(CN1CC2(CC2(F)F)c2c(ccc(Br)c2F)C1=O)Nc1ncc(C(F)(F)F)cn1 (single isomer, unassigned) [Example 324] is ___
1.43

Fill in: log10 of IC50 of O=C(CN1C[C@@]2(C[C@@H]2F)c2cc(C(F)(F)F)ccc2C1=O)Nc1ncccn1 (single isomer, unassigned) [Example 240] is ___
3.09

Fill in: log10 of IC50 of O=C(CN1CC2(CC2)c2cc(Br)ccc2C1=O)Nc1ncc(F)cc1F [Example 38] is ___
2.65
